Conditions: 303.15 K; 101.33 kPa; Liquid; Pycnometric method
Property measured: mass density (kg/m3)

                    molecule  property_measured  obs_value
0                 NCc1ccccc1       mass density      975.6
1                   C1COCCO1       mass density     1022.4
2                     CCCCCC       mass density      652.9
3  C1CCOC1 [tetrahydrofuran]       mass density      876.5

Taken from the NIST ThermoML archive (doi:10.1016/j.fluid.2018.08.001).
